molecular target: human 5HT1A-serotonergic receptor (Homo sapiens, UniProt P08908); experiment: [3H]8-OH-DPAT radioligand binding to human recombinant 5-HT1A receptors; details: [3H]8-OH-DPAT, HeLa cell membranes; read-out: Affinity: Ki
Sequence (P08908 whole entry): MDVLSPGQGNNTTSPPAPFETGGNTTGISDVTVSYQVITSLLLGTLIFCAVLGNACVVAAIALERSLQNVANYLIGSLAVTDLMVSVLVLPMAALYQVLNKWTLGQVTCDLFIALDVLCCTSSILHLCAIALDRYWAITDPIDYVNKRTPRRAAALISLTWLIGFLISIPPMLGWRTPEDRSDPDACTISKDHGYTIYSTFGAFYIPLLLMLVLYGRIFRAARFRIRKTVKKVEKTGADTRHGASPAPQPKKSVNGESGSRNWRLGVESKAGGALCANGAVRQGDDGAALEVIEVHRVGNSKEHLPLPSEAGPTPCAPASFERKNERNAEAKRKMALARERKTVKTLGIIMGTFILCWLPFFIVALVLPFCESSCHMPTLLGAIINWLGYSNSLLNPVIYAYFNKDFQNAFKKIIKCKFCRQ
pKi: −log10 of the molar value.
quantity.name: pKi

Sample answers from the record:
OC(C1CCCCC1)C(CCN1CCN(c2ccccc2OCC(F)(F)F)CC1)c1ccccc1F (stereo not drawn) :: 9.17
COc1ccccc1N1CCN(CC[C@@H](c2ccccc2F)[C@H](O)C2CCCCC2)CC1 [Ex. 1X] :: 9.30
COc1ccccc1N1CCN(CC[C@H](c2ccccc2F)[C@@H](O)C2CCCCC2)CC1 :: 9.43

P. COc1ccccc1N1CCN(CC[C@@H](c2ccccc2F)[C@@H](O)C2CCCCC2)CC1
Q. O[C@@H](C1CCCCC1)[C@H](CCN1CCN(c2ccccc2OCC(F)(F)F)CC1)c1ccccc1F (racemic)
R. COc1ccccc1N1CCN(CC[C@@H](c2ccccc2F)[C@H](O)C2CCCCC2)CC1 (racemic) [Ex. 1]
Task: Arrange items by their pKi values in increasing order. List labels; respect the requested ordering.
Result: P, Q, R
(P: 9.01, Q: 9.54, R: 9.89)

a. COc1ccccc1N1CCN(CC[C@H](c2ccccc2F)[C@H](O)C2CCCCC2)CC1
b. COc1ccccc1N1CCN(CC[C@H](c2ccccc2)[C@@H](O)C2CCCCC2)CC1 (racemic) [Ex. 5, reference compound]
Task: Hi! Which is lower in terms of pKi, the first one a or the second one b ? Answer by quoting the chosen item's label.
Result: b
